test system: gene editing with dCas9; test: Screen of 322 new SSAP proteins, gene editing activity with dCas9 (Table 5); type: cell-based; conditions: normalized
Doc: threshold -0.9 (exclusive). Items with dCas9 with SSAP activity (normalized) beneath it return condition met; others return condition not met.

[
  {
    "Molecule": "SSAP_31: SEQ ID NO: 200 (protein) TTVNQTELKNKLAEKAKTPAKTGNTVFDLIRKMEPEIKRALPKQISPERFARIAMTAVRNTPKLQACEPISFIAALMQSAQLGLEPNTPLGQAYLIPYGKEVQFQLGYQGMLTLAYRTGEYQSIYAMPVYANDEFEYEYGLNEKLVHKPAPDPEGEPIYYYAVYKLKNGGHGFVVMSRQQIERHRDKYSPSAKQGKFSPWNTDFDSMAKKTVLKQLLKYAPKSVEFATQIAQDETIKTEIAEDMTEVQGIEVEYEATDDQENQENQEQED",
    "Assigned Class": "condition not met"
  },
  {
    "Molecule": "SSAP_25: SEQ ID NO: 194 (protein) NNEVMEKSVEYEVNGNSVKLTPNMIKQFITKGNADVTDQEAIMFMKLAEQQQLNPFLNEVYLIKFKGKPAQNIVAKEAFMKRAEKHSEYDGLEAGIIVQRGEEIKELPGAVCLPTDNLLGGWARVYRKDRKNPFYVQLDFKEFSKGQATWNQMPKNMIRKTAIVNALREAFPEALGAMYTEDDARLEEVKTAEPIKEKAETTQILENKFKELSENGQTEVGDEQTNESTEPEPTAKQEQLL",
    "Assigned Class": "condition not met"
  },
  {
    "Molecule": "SSAP_7: SEQ ID NO: 176 (protein) STNDELKNKLANKQNGGQVASAQSLGLKGLLEAPTMRKKFESVLDKKAPQFLTSLLNLYNGDDYLQKTDPMTVVTSAMVAATLDLPIDKNLGYAWIVPYKGRAQFQLGYKGYIQLALRTGQYKSINVIEVRDGELLKWNRLTEEIELDLDNNTSEKVIGYCGYFQLINGFEKTVYWTRKEIEAHKKKFSKSDFGWKKDYDAMAKKTVLRNMLSKWGILSIDMQTAVTEDEAEPRERKDVTEDESIPDIIDAPITPSDTLEAGSEVQGSMI",
    "Assigned Class": "condition met"
  },
  {
    "Molecule": "SSAP_19: SEQ ID NO: 188 (protein) NTPTMKRKFEEVLHENANAFMSNVMTLVSNDSYLAESEPMSILSGALTAATLNLGLDKNLGYAYLVPFNTKNKQTGKWERKAQFILGYKGYIQLAQRSGKYKALNVIEVYEGELLSWNRLTEEFEFDPNGRQSDDVIGYVGYFELLNGFKKTVYWTKQEIEAHRIANSKDKEKTKLSGVWATDYNAMARKTVLRNMLSKWGILSIEMQEATTSDEKVQQMQEDGNIISETEVEENTTMKTAEVINEADSDSLNQTDLFDTKNPPLE",
    "Assigned Class": "condition not met"
  }
]

Source of measurements: patent US20250034594A1
